Record form. Attribute: Unfolding rate ku. Fill in for each entry.
- measurement.protocol: Constant-force (CF) single-molecule optical tweezers folding assay of guanine-aptamer RNAs in guanine buffer
- Format: physicochemical
- condition: transition C′B (L2-L3 folding); F 8.5 pN; 3 mM Mg^2+, 200 nM G
Answer format: value, then unit.

Need Unfolding rate ku of m6: m6 mutant guanine sensing aptamer RNA (SEQ ID NO: 7); U67A, shorter P3 hairpin and larger L3 loop (nucleic acid, RNA, backbone and methylation of C not given here, U67A, shorter P3 hairpin and larger L3 loop) CACUCAUAUAAUCGCGUGGAUAUGGCACGCAAGUUUCUACCGGGCACCGUAAAAGUCCGACUAUGGGUG , thanks. 23.9 ± 0.6 s⁻¹

Would you mind doing m4: m4 mutant guanine sensing aptamer RNA (SEQ ID NO: 5); A59G/U67C in the P3 hairpin (nucleic acid, RNA, backbone and methylation of C not given here, A59G/U67C in the P3 hairpin) CACUCAUAUAAUCGCGUGGAUAUGGCACGCAAGUUUCUACCGGGCGCCGUAAACGUCCGACUAUGGGUG as well? 0.56 ± 0.04 s⁻¹

Same lookup for m8: m8 mutant guanine sensing aptamer RNA (SEQ ID NO: 9); A19G and U77C in the P1 hairpin (nucleic acid, RNA, backbone and methylation of C not given here, A19G and U77C in the P1 hairpin) CACUCGUAUAAUCGCGUGGAUAUGGCACGCAAGUUUCUACCGGGCACCGUAAAUGUCCGACUACGGGUG , please. 1.5 ± 0.2 s⁻¹

And wt: 69-nucleotide full-length wild-type guanine sensing aptamer RNA sequence from xpt-pbuX operon in B. subtilis (SEQ ID NO: 1) (nucleic acid, RNA, backbone and methylation of C not given here) CACUCAUAUAAUCGCGUGGAUAUGGCACGCAAGUUUCUACCGGGCACCGUAAAUGUCCGACUAUGGGUG ? 0.8 ± 0.05 s⁻¹
